# STUDY_TARGET: Aβ42 (Homo sapiens, UniProt P05067)
# Sequence (P05067 672-713): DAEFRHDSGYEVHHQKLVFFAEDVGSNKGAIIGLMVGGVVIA
# TEST_SUMMARY: Th-T (thioflavin-T) assay of Aβ42 aggregation
# Format: biochemical
# CONDITION_NOTES: head suffix _50 (concentration 50); reading M66
Decision: Th-T fluorescence of Aβ42 (sheet Fig. 7a), mean of three wells compared against 0.5; not below it gives Yes, below it gives No.

### Prompt Identify whether the reported Th-T fluorescence of Aβ42 (sheet Fig. 7a), mean of three wells of the following molecule is 0.5 or greater: C=C1CC[C@@H]2[C@](C)(CC[C@H]3O[C@H](C=C(C)C)C[C@@]23C)[C@@H]1Cc1c(OC)oc(CO)c(C)c1=O
### Response Yes

### Prompt Entry C=C1CCC2C(C)(CCC=C(C)C)C(O)CCC2(C)C1Cc1c(OC)oc(C)c(C(=O)OC)c1=O (centres unmarked) : is its Th-T fluorescence of Aβ42 (sheet Fig. 7a), mean of three wells no less than 0.5?
### Response Yes

### Prompt Could you verify whether the entry C=C1CCC2C(C)(CCC=C(C)C)C(O)CCC2(C)C1Cc1c(OC)oc(CO)c(C(=O)OC)c1=O (centres unmarked) shows Th-T fluorescence of Aβ42 (sheet Fig. 7a), mean of three wells of no less than 0.5?
### Response No

### Prompt # bool: Th-T fluorescence of Aβ42 (sheet Fig. 7a), mean of three wells of C=C1CCC2C(C)(CCC=C(C)C)C(O)CCC2(C)C1Cc1c(OC)oc(CO)c(C)c1=O (centres unmarked) >= 0.5
### Response Yes

### Prompt Say whether C=C1CC[C@@H]2[C@](C)(CC[C@H]3O[C@H](C=C(C)C)C[C@@]23C)[C@@H]1Cc1c(OC)oc(CO)c(C(=O)OC)c1=O shows Th-T fluorescence of Aβ42 (sheet Fig. 7a), mean of three wells of 0.5 or more.
### Response No
